- procedure.details: Polymorph screening of solid state drug substances (Table 23)
- Type: physicochemical
- run.conditions: Acetone, stirred 50 °C 72 hours

>  <compound>
CCCCCCCCCCCCCCCCOC(=O)Oc1ccc2c3c1O[C@H]1C(=O)CC[C@@]4(O)C(C2)N(CC2CC2)CC[C@]314 [Compound 21]

>  <XRPD results (Dried)>
Pattern A

$$$$
>  <compound>
CCCCCCCCCCOC(=O)Oc1ccc2c3c1O[C@H]1C(=O)CC[C@@]4(O)C(C2)N(CC2CC2)CC[C@]314 [Compound 10]

>  <XRPD results (Dried)>
Pattern A

$$$$
>  <compound>
C=C1CC[C@@]2(O)C3Cc4ccc(OC(=O)CCCCCCCCCCCCCCCCCCC)c5c4[C@@]2(CCN3CC2CC2)[C@H]1O5 [Compound 16]

>  <XRPD results (Dried)>
Pattern A

$$$$

These measurements were taken from patent US20190308988A1.
